- measurement-notes: MTT cytotoxicity assay, WI38 normal cell line
- Assay type: cell-based
- study-conditions: human, WI38 normal cells; WI38 normal cell line; MTT; three different experiments; read-out: In Vitro Cytotoxicity IC50
readout: IC50 (µM)
Numbers only here, please. The scale is µM.

*Q* Supply IC50 value. Item: Cc1nn(-c2ccccc2)c2ncn(CC(=O)c3ccccc3)c(=O)c12 [Compound P4]
*A* 44

*Q* Supply IC50 value. Item: CCN(CC)CCNC(=O)c1c(C)[nH]c(/C=C2\C(=O)Nc3ccc(F)cc32)c1C [Sunitinib, sunitinib, reference compound]
*A* 55.6

*Q* Supply IC50 value. Item: C#CCn1cnc2c(c(C)nn2-c2ccccc2)c1=O [Compound P3]
*A* 52.5

*Q* Supply IC50 value. Item: Cc1nn(-c2ccccc2)c2nc[nH]c(=O)c12 [Compound P1]
*A* 85.7
